The reported numbers originate from patent US20230091225A1.

biological target: androgen receptor (AR) (Homo sapiens, UniProt P10275); assay: Degradation of androgen receptor (AR) protein in VCaP cells by Western blot; format: cell-based; conditions: percentage of degraded AR at 100 nM, VCaP cells, 16 h
Sequence (P10275 whole entry): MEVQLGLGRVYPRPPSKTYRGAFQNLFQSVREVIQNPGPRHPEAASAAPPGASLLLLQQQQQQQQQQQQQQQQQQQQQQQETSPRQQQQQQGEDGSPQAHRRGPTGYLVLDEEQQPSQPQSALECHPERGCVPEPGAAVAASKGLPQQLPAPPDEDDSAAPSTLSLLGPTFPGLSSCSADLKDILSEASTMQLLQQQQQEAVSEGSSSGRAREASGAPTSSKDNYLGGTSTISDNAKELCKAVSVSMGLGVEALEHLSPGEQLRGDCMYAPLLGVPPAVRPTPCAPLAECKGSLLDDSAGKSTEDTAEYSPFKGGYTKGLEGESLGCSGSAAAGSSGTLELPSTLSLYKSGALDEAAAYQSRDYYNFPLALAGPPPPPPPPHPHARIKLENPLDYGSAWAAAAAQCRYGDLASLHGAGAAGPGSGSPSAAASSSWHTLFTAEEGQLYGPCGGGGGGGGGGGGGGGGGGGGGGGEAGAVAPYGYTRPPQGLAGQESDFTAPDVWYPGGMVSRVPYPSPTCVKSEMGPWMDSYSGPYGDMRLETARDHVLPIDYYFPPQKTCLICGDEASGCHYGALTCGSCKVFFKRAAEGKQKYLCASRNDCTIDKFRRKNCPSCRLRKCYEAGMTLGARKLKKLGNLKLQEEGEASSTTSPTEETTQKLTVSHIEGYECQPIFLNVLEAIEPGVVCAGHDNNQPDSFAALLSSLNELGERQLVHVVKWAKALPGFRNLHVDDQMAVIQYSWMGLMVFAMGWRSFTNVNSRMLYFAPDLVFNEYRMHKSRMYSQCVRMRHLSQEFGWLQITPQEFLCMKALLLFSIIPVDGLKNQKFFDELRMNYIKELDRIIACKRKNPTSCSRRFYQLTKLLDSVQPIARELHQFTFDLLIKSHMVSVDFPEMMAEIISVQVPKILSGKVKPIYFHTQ
Each entry below carries its reported inhibition at 0.1 µM.

Consider the worked cases shown below.
compound="N#Cc1ccc(O[C@H]2CC[C@H](NC(=O)c3cnc(N4CCN([C@@H]5C[C@@H]6CN(c7cc8c(cc7F)C(=O)N(C7CCC(=O)NC7=O)C8=O)C[C@@H]6C5)CC4)nc3)CC2)cc1Cl (some centres unmarked)" experimental_target="androgen receptor (AR) (Homo sapiens, UniProt P10275)" test_readout="inhibition at 0.1 µM" observed="< 25%"
compound="CC1(C)[C@H](Oc2ccc(C#N)c(Cl)c2)C(C)(C)[C@H]1N1Cc2cc(N3CCC(CN4CCN(c5cc6c(cc5F)C(=O)N(C5CCC(=O)NC5=O)C6)CC4)CC3)ccc2C1=O (some centres unmarked)" experimental_target="androgen receptor (AR) (Homo sapiens, UniProt P10275)" test_readout="inhibition at 0.1 µM" observed="25 to 49%"
compound="N#Cc1ccc(O[C@H]2CC[C@H](N3Cc4nc(N5CCC(OC6CCN(c7cccc8c7C(=O)N(C7CCC(=O)NC7=O)C8=O)CC6)CC5)ccc4C3=O)CC2)cc1Cl (some centres unmarked)" experimental_target="androgen receptor (AR) (Homo sapiens, UniProt P10275)" test_readout="inhibition at 0.1 µM" observed="< 25%"
compound="N#Cc1ccc(O[C@H]2CC[C@H](NC(=O)c3cnc(N4CC(CN5CC6CN(c7cc8c(cc7F)C(=O)N(C7CCC(=O)NC7=O)C8=O)CC6C5)C4)nc3)CC2)cc1Cl (some centres unmarked)" experimental_target="androgen receptor (AR) (Homo sapiens, UniProt P10275)" test_readout="inhibition at 0.1 µM" observed="25 to 49%"

Moving on to another compound below.
Read off the recorded inhibition at 0.1 µM for N#Cc1ccc(O[C@H]2CC[C@H](NC(=O)c3ccc(N4CCN(C(=O)O[C@H]5C[C@@H]6CN(c7cc8c(cc7F)C(=O)N(C7CCC(=O)NC7=O)C8=O)C[C@@H]6C5)CC4)nn3)CC2)cc1Cl (some centres unmarked)
50 to 79%
